Biological target: Sentrin-specific protease 8 (Homo sapiens)
Test: blockers of human SENP8 peptidase activity – biochemical, luminescence, primary screen (AID 2540)
Settings: purified SENP8, Z-RLRGG-aminoluciferin cleavage, at 10 µM
About 4,100 (1.2%) of roughly 330,000 compounds were called active. Cut-off read from the data, not from the text of the source: active = inhibition above about 50%; inactive = the rest. Shown is part of a subset that was picked to be rich in actives.
Write down the outcome that applies. Available outcomes: active, inactive

Answered cases to consult:
| Compound | Label class |
| --- | --- |
| O=C(Nc1ccccc1)c1ccc2c(c1)OCO2 | active |
| Cc1onc(C(=O)Nc2ccc3c(c2)OCO3)c1[N+](=O)[O-] | inactive |
| O=C(Nc1cccc([N+](=O)[O-])c1)c1ccc2c(c1)OCO2 | active |
| O=C(COC(=O)c1ccncc1)Nc1ccc2c(c1)OCO2 | inactive |
| O=C(Nc1ccccc1)c1ccc2c(c1)OCCCO2 | active |

# evaluate next
# outcome recorded in this test, key = O=C(Nc1ccc(N2CCOCC2)cc1)c1ccc2c(c1)OCO2
inactive

----------
Molecular target: Sentrin-specific protease 8 (Homo sapiens)
Assay: blockers of human SENP8 peptidase activity – biochemical, luminescence, primary screen (AID 2540)
Conditions: purified SENP8, Z-RLRGG-aminoluciferin cleavage, at 10 µM
Hit rate of the full screen: of about 330,000 compounds, about 4,100 (1.2%) were called active. Cut-off read from the data, not from the text of the source: active = inhibition above about 50%; inactive = the rest. The sample holds actives, similar compounds and a random draw of the others, so the mix is not that of the screen.
Your response should consist of one outcome taken from active, inactive

| Compound | Label class |
| --- | --- |
| CN1CC(c2ccccc2)C2(COc3ccccc3C2=O)C12C(=O)Nc1ccccc12 (stereo not given) | inactive |
| COCCCN(C(=O)CSCc1ccc(C)cc1)c1c(N)n(Cc2ccccc2)c(=O)[nH]c1=O | inactive |
| Cc1cc(C(=O)N/N=C/c2ccc(N3CCOCC3)cc2)c(C)o1 | active |
| Cc1[nH]n(-c2ccccc2)c(=O)c1N=Nc1ccccc1C(=O)N1CCCCC1 | inactive |
| Cc1ccc(Nc2cc(C)nc3c(C)ccc([N+](=O)[O-])c23)cc1 | inactive |

// outcome(item) with item = CC(C)Sc1ncnc2c1cnn2-c1ccccc1
inactive

Could you kindly confirm the outcome this assay logged for CNc1nc(Nc2ccc(C)c(Cl)c2)nc(N)c1[N+](=O)[O-] ?
active

Could you check what this test reported for CCc1ccc(NC(=O)CCNS(=O)(=O)c2cccs2)cc1 ?
inactive

Recorded test outcome, item Clc1ccc(C=NC23CN4CN(CN(C4)C2)C3)cc1
inactive

Dear colleague, could you share the recorded outcome for C/C(=N\Nc1nncc2ccccc12)c1ccc(Cl)c([N+](=O)[O-])c1 when you have a moment?
inactive

----------
Target: Sentrin-specific protease 8 (Homo sapiens) (UniProt Q96LD8)
Sequence (Q96LD8 whole entry, looked up): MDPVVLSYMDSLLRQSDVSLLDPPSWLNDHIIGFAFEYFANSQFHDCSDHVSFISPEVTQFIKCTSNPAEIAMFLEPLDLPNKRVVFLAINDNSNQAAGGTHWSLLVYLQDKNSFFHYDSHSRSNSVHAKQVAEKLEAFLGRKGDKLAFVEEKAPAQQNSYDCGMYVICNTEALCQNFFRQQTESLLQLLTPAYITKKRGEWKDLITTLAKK
Assay: blockers of human SENP8 peptidase activity – biochemical, luminescence, primary screen (AID 2540)
Conditions: purified SENP8, Z-RLRGG-aminoluciferin cleavage, at 10 µM, stronger effect = higher value
The campaign covered roughly 330,000 compounds. About 4,100 (1.2%) were called active. This excerpt belongs to a sample that is enriched for actives.
// reported inhibition per item
Answer with a number only, understood to be in %.

| Molecule | Experimental endpoint | Reported result |
| --- | --- | --- |
| N/C(=N\OC(=O)CCC1CCCCC1)c1ccccn1 | inhibition | 70.6 |
| COc1ccc(C(=O)Nc2cccc(S(C)(=O)=O)c2)cc1 | inhibition | -4.36 |
| Cc1cc(O)cc(O)c1C(=O)Cc1cnn(-c2ccccc2)c1 | inhibition | -5.32 |
| COC(=O)C1=C(N)Oc2cc(C)[nH]c(=O)c2C1c1ccc(Cl)cc1 (configuration not stated) | inhibition | 3.38 |
| CCOC(=O)c1cnc(COc2ccccc2Cl)[nH]c1=O | inhibition | -10.8 |
| COc1cccc(C(=O)Nc2nc3ccc(S(C)(=O)=O)cc3s2)c1 | inhibition | 82.5 |
| COc1cccc(C(=O)Nc2nnc(S(=O)(=O)N(C)c3ccccc3)s2)c1 | inhibition | -5.38 |
| CCOC(=O)c1cnc2[nH]c3ccccc3n2c1=O | inhibition | 78.1 |

Looking for the measured inhibition of COc1ccc(F)cc1C(=O)C1CCCN(C(=O)CCc2ccccn2)C1 (configuration not stated) , can you help?
29.7

Need inhibition, item COc1ccccc1OCC(=O)O/N=C(\N)c1ccccn1
-6.27

State the recorded inhibition for this entry: CCOC(=O)c1cnc2sccn2c1=O
-2.74

// query inhibition value for entry O=C(c1cnn(-c2ccc(Cl)cc2)c1)c1ccccc1O
91.4

Values from PubChem BioAssay AID2540
